- ASSAYED SYSTEM: human complement factor D purified from serum (human, UniProt P00746 26-253); also: test concentration or dose not given here
- Sequence (P00746 26-253): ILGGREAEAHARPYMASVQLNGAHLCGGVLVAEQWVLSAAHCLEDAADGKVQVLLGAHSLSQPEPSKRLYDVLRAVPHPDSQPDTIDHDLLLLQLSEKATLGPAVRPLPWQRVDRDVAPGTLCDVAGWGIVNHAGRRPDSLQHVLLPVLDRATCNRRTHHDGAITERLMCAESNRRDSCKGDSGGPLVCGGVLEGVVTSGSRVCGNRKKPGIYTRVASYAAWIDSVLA
- PROTOCOL TEXT: cell-based or functional assay
READOUT LABEL: CFD Enzymatic activity (% of Neg Ctrl)

KCD121 (antibody, V domains shown, chimeric) VH: EVQLQQSGPELVKPGASVKISCKASGYTFTDYYKNWMRQRHGESLEWIGDINPNNGDTSYNQKFRGKATLTVDKSSSTAFMELRSLTSEDSAVYYCAREGPSFAYWGQGTLVTVSA VL: DVLMTQTPLSLPVSLGDQASISCRSNQTIVHSNGDTYLEWYLQKPGQSPNLLIYKVSNRFSGVPDRFSGSGSGTDFTLRISRVEAEDLGVYYCFQGSHVPPTFGGGTKLEIK ... 16.7 % of Neg Ctrl
KCD003 (antibody, V domains shown, chimeric) VH: EVQLQQSRPELVKPGASVKIFCKASGYTFTDYYMNWMRQRHGETLEWIGDINPNNGDPSYNQKFKDKATLTVDKSSSTASMELRSLTSDDSAVYYCAREGPSFAYWGQGTLVTVSA VL: DVLMTQTPLSLPVSLGEQASISCRSSQTIVHSNGDTYLEWYLQKPGQSPNLLIYKVSNRFSGVPDRFSGSGSGTDFTLKISRVEAEDLGVYYCFQGSHVPPTFGGGTKLEIK ... 19.6 % of Neg Ctrl

Task: Returns the measured CFD Enzymatic activity (% of Neg Ctrl) for the input binder. Input: KCD005 (antibody, V domains shown, chimeric) VH: EVQLQQSGPELVKPGASVKISCKASGYTFTDHYMNWVKQSHGKSLEWIGDINPNNGGTSCNQKFKGKATLTVDKSSSTAYMELRSLTSGDSAVYYCTREGASFAFWGQGTLVTVSA VL: DVLMTQTPLSLPVSLGDQASISCRSSQSIVHSNGDTYLEWYLQKPGQSPKLLIYKVSNRFSGVPDRFSGSGSGTDFTLKISRVEAEDLGVYYCFQGSHVPVTFGAGTKLELK
Result: 49.2 % of Neg Ctrl
